All values here come from ChEMBL document CHEMBL5143711.

# Tested on: Staphylococcus aureus
# protocolDetails: Antibacterial activity against Staphylococcus aureus ATCC 25923 incubated for 16 to 24 hrs by broth microdilution based spectrophotometric analysis
# Type: functional, organism-based
The following compounds are listed with their measured IC50 values.

{"columns": ["chemicalString", "testedTarget", "assayMetric", "result"],
 "data": [
  ["CC1=C[C@H]2[C@@H]([C@@H](C)CC[C@@H]2O[C@@H]2O[C@H](C)[C@@H](O)[C@@H](O)[C@H]2O)[C@]2(C)C(=O)C3=C(O)[C@@]4(C[C@@H](C)C(C(=O)O)=C[C@@]4(C)/C=C(\\C)CC/C=C(\\C)[C@H]12)OC3=O", "Staphylococcus aureus", "IC50", "> 30 µM"]
]}

Note to self: IC50 recorded for CC1=C[C@H]2[C@@H]([C@@H](C)CC[C@@H]2O)[C@]2(C)C(=O)C3=C(O)[C@@]4(C[C@@H](C)C(C(=O)O)=C[C@H]4/C=C(\C)CC/C=C(\C)[C@H]12)OC3=O was > 30 µM

The reported IC50 of the compound CC(=O)O[C@H]1CC[C@H](C)[C@@H]2[C@@H]1C=C(C)[C@H]1/C(C)=C/CC/C(C)=C/[C@]3(C)C=C(C(=O)O)[C@H](C)C[C@]34OC(=O)C(=C4O)C(=O)[C@@]21C was > 30 µM
